# SYSTEM_UNDER_TEST: T1, human MSLN-R1-his protein (human, UniProt Q13421 296-390)
# T1 construct: Region 1 of human MSLN, His-tagged; also called human MSLN-R1 protein; hMSLN-R1-his; not shown: His tag
# T1 chain: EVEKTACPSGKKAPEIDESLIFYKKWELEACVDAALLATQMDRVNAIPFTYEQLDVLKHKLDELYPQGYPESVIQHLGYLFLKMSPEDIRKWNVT
# ASSAY_EXPLANATION: ELISA, coated MSLN-R1;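 further: serially diluted chimeric antibodies bound to the coated, BSA-blocked plate for 2 h at 37 °C, with TMB colour read after acid stop and a negative control antibody alongside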

{"BINDER": "S009-F2.47.1 (antibody, human IgG1, kappa, V domains shown, Human-murine chimeric antibody, human IgG1/kappa constant regions) VH: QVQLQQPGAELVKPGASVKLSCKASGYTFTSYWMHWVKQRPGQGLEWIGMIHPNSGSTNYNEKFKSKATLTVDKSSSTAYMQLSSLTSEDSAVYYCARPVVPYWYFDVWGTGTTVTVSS VL: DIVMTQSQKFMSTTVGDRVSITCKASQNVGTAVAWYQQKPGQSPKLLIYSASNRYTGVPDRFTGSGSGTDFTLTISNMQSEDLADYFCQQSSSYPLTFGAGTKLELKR", "OD450 at 0.1 nM (OD450)": 0.05}
{"BINDER": "S009-F2.58.8 (antibody, human IgG1, kappa, V domains shown, Human-murine chimeric antibody, human IgG1/kappa constant regions) VH: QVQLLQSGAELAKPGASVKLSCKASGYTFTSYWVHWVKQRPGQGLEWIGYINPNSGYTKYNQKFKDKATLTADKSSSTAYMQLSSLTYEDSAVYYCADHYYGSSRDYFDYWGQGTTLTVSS VL: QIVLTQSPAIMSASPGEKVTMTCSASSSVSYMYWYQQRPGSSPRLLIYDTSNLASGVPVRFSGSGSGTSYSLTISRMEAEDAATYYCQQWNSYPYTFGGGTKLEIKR", "OD450 at 0.1 nM (OD450)": 0.06}
